Tested on: stains, molds, and fungi
Test Description: Wood preserving efficacy on freshly cut white birch wood (dip treatment, sealed bag)
Set-up: key: 4 - Clean with no visible stain or mold; 3 - Trace amount of white/black fungal growth; 2 - Black and/or white fungal growth visible on all faces and ends; 1 - Heavy fungal growth
Conditions: 7 weeks
Experimental Endpoint: Rating of treated white birch sections vs. Time
Number only, please.

Field: example entries. Status: answers known.
[[record]]
compound = "CCCCCCCCCCCCCC[N+](C)(C)[O-] [Tetradecyl dimethylamine oxide]"
quantitative_readout = 2

[[record]]
compound = "CCCCCCCCCC[N+](C)(C)CCCCCCCCCC.[Cl-] [Didecyldimethyl ammonium chloride, didecyldimethylammonium chloride, reference compound]"
quantitative_readout = 3

[[record]]
compound = "CCCCCCCCCC[N+](C)(C)[O-] [Decyldimethylamine oxide]"
quantitative_readout = 2


Problem: Record lookup: for stains, molds, and fungi, what Rating of treated white birch sections vs. Time belongs to CCCCCCCCCCCCCCCC[N+](C)(C)[O-] [Hexadecyl dimethylamine oxide, hexadecyl dimethylamine oxide] ?
Solution: 2

====

Test system: stains, molds, and fungi
Test Description: Wood preserving efficacy on freshly cut white birch wood (dip treatment, sealed bag)
Design: key: 4 - Clean with no visible stain or mold; 3 - Trace amount of white/black fungal growth; 2 - Black and/or white fungal growth visible on all faces and ends; 1 - Heavy fungal growth
Conditions: 3 weeks
Rating of treated white birch sections vs. Time: recorded values
No unit in the answer, only the number.

Would you please look over these solved cases?
[[record]]
compound = "CCCCCCCCCCCCCC[N+](C)(C)[O-] [Tetradecyl dimethylamine oxide]"
quantitative_readout = 3

[[record]]
compound = "CCCCCCCCCCCCCCCC[N+](C)(C)[O-] [Hexadecyl dimethylamine oxide, hexadecyl dimethylamine oxide]"
quantitative_readout = 2

[[record]]
compound = "CCCCCCCCCC[N+](C)(C)[O-] [Decyldimethylamine oxide]"
quantitative_readout = 2


// next item, Rating of treated white birch sections vs. Time requested
Problem: Give the reported Rating of treated white birch sections vs. Time for CCCCCCCCCC[N+](C)(C)CCCCCCCCCC.[Cl-] [Didecyldimethyl ammonium chloride, didecyldimethylammonium chloride, reference compound] (system: stains, molds, and fungi).
Solution: 4

====

Test system: Chaetomium globsum (C. globsum), a soft rot fungus
Test Description: Agar plate method, fungus growth inhibition
Assay type: cell-based
Experimental Endpoint: IC50

[[record]]
compound = "CCCCCCCCCCCCCCCCCC[N+](C)(C)[O-] [Octadecyl dimethylamine oxide]"
experimental_endpoint = "IC50"
result = "600 ppm"

[[record]]
compound = "CCCCCCCCCC[N+](C)(C)[O-] [Decyldimethylamine oxide]"
experimental_endpoint = "IC50"
result = "50-100 ppm"

[[record]]
compound = "CCCCCCCCCC[N+](C)(C)CCCCCCCCCC.[Cl-] [Didecyldimethyl ammonium chloride, didecyldimethylammonium chloride, reference compound]"
experimental_endpoint = "IC50"
result = "10-20 ppm"

[[record]]
compound = "CCCCCCCC[N+](C)(C)[O-] [Octyldimethylamine oxide]"
experimental_endpoint = "IC50"
result = "400 ppm"

[[record]]
compound = "CCCCCCCCCCCCCCCC[N+](C)(C)[O-] [Hexadecyl dimethylamine oxide, hexadecyl dimethylamine oxide]"
experimental_endpoint = "IC50"
result = "20-50 ppm"


Now consider a different compound.
Problem: Quick check: IC50 of CCCCCCCCCCCCCC[N+](C)(C)[O-] [Tetradecyl dimethylamine oxide] ?
Solution: 80-100 ppm
